- systemUnderTest: T1, human GITR (amino acids M1-V241, NCBI Accession #NP_004186.1) expressed on cells (human, UniProt Q9Y5U5 26-241)
- T1 construct: also called hGITR; hGITR/HEK293-D9
- T1 sequence: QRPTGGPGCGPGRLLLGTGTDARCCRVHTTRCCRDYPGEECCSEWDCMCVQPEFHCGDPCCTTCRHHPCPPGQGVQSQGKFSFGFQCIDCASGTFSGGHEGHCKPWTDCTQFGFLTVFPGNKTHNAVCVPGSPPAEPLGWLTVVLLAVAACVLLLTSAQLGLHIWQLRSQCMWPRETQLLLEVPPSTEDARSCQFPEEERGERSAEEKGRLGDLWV
- assayDetails: ECL cell binding, hGITR/HEK293-D9
Recorded EC50 values for a group of binders are listed next.
Field format: number, assumed nM, no unit text.

Check out these entries, answers already filled in.
[
  {
    "binder": "H4H14530P (antibody, human IgG4, V domains shown, human IgG4 (H4H)) VH: QLQLQESGPGLVKPSETLSLTCTVSGGSISSTNHYWGWIRQPPGKGLEWIGNVYYIGNAYYNPSLKTGVTFSVDTSKNQFSLNLRSVTAADTAMYYCARLSNWNFLDLWGQGTLVTVSS VL: EIVMTQSPATLSVSPGERATLSCRASQSISSNLAWYQQKPGQAPRLLIYGASTRATGIPARFSGSGSGTEFTLTISSLQSEDFAVYYCQQFNNWLSFGGGTKVEIK",
    "unitString": "nM",
    "assayValue": 85
  },
  {
    "binder": "H1H14524P (antibody, human IgG1, V domains shown, human IgG1 (H1H)) VH: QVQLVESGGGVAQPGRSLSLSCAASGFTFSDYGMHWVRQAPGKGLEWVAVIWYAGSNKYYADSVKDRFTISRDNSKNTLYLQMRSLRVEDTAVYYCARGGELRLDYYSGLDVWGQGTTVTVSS VL: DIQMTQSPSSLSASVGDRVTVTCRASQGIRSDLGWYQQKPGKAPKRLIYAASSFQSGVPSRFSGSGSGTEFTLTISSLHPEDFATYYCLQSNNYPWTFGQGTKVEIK",
    "unitString": "nM",
    "assayValue": 0.21
  }
]

Now consider the entry below.
Form field EC50, entry H4H14525P (antibody, human IgG4, V domains shown, human IgG4 (H4H)) VH: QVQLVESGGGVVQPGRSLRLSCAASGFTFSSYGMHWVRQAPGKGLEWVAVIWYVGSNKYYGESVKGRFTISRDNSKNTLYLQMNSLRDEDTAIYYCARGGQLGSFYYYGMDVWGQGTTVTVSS VL: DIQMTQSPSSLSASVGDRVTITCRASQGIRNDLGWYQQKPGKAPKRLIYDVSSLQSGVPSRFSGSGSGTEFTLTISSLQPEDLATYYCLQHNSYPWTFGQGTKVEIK : 0.6
